- Protocol Details: oxidation potential E1 by cyclic voltammetry
- Assay type: physicochemical
- Details: Table XI
Structures can show the parent of a compound that is named as a salt.
Quantity Measured: E1 (V)

# Compound, Quantity Measured, Readout Number
rows = [
    ("CCSCCN(c1ccc(Cl)cc1)C(C)C(=O)O (stereo not shown) [Compound S-12, sodium salt]", "E1 (V)", 0.51),
    ("CCSCCN(c1ccc(C(=O)O)cc1)C(C)C(=O)O (stereo not shown) [Compound S-11]", "E1 (V)", 0.54),
    ("CCSCCN(c1ccccc1)C(CC(=O)O)C(=O)O (stereo not shown) [Compound S-14]", "E1 (V)", 0.51),
    ("CCSCCN(c1cccc(C(N)=O)c1)C(C)C(=O)O (stereo not shown) [Compound S-13]", "E1 (V)", 0.53),
]

* * *

- Protocol Details: oxidation potential E2 of radical X by laser flash photolysis
- Format: physicochemical
- Details: Table H; model compound, A and L replaced by alkyl
Quantity Measured: E2 (V) for XY moiety

# Compound, Quantity Measured, Result
measured = [
    ("CC(C(=O)O)N(CCC(=O)Nc1cccc(-n2nnnc2S)c1)c1ccccc1 (stereo not drawn) [PMT-2]", "E2 (V) for XY moiety", "< -0.9 V"),
    ("CCSCCN(c1ccccc1)C(CC(=O)O)C(=O)O (stereo not drawn) [Compound S-14]", "E2 (V) for XY moiety", "< -0.9 V"),
    ("Cc1ccc(N(CCC(=O)Nc2cccc(-n3nnnc3S)c2)C(C)C(=O)O)cc1 (stereo not drawn) [PMT-1]", "E2 (V) for XY moiety", "< -0.9 V"),
]

* * *

- Protocol Details: oxidation potential E1 by cyclic voltammetry
- Format: physicochemical
- Details: Table X
Structures can show the parent of a compound that is named as a salt.

# Compound, E1 (V)
records = [
    ("CCSCCN(c1ccccc1)C(C)C(=O)O (stereo not drawn) [Compound S-9, sodium salt]", "0.43 V"),
    ("CCSCCN(CC(=O)[O-])c1ccc(C)cc1.[Na+]", "0.45 V"),
    ("CCSCCN(c1ccc(C)cc1)C(CC(=O)O)C(=O)O (stereo not drawn)", "0.45 V"),
]

* * *

- Protocol Details: oxidation potential E2 of radical X by laser flash photolysis
- Type: physicochemical
- Details: Table C; by parent XY compound; < = more negative than
Oxidation Potentials of Radicals (X*), E2 for assorted compounds
Quantity Measured: Oxidation Potentials of Radicals (X*), E2

# Compound, Result
data = [
    ("Cc1ccc(N(CC(=O)O)C(C)C(=O)O)cc1 (stereo not drawn) [Compound 20]", "< -0.9 V"),
    ("CC1CC(C)(C)N(CC(=O)O)c2ccccc21 (stereo not drawn) [Compound 47]", "~ -0.9 V"),
    ("COc1ccc(N(CC(=O)O)C(C)C(=O)O)cc1 (stereo not drawn) [Compound 15]", "< -0.9 V"),
]
